Entry source: paper PMC12615863

EXPERIMENT_NOTES: Biodistribution in mice bearing PC-3 xenografts
Assay type: in vivo, Balb/c nu/nu mice
TEST_CONTEXT: Balb/c nu/nu, mouse, tumor, iv, total radioactivity, PC-3 xenografted Balb/c nu/nu mice, iv 100 pmol; 2 h pi blocked (co-injected 100-fold molar excess NOTA-PEG2-RM26); mean ± SD, n = 3; read-out: Tumor activity uptake
Method: Each mouse was xenografted with a subcutaneous injection of 8 × 10⁶ PC-3 cells in the right hind leg. After approximately 4 weeks, the animals were injected into the tail vein with 100 µL of radiopeptide (100 pmol—110–130 kBq, diluted in PBS/BSA). Four animals were used for each time point per peptide. […] At the determined time points, the mice were euthanized, organs were collected and weighed, and their activity content was measured in the gamma counter. […]
MEASUREMENT_LABEL: tissue uptake at 2 h (%ID/g)
Kindly answer with a numeric value in %ID/g, unit omitted.

## Input Can you look up the measured tissue uptake at 2 h of CC(C)C[C@H](NC(=O)C[C@H](O)[C@H](CC(C)C)NC(=O)[C@H](Cc1c[nH]cn1)NC(=O)CN(C)C(=O)[C@@H](NC(=O)[C@H](C)NC(=O)[C@](C)(Cc1c[nH]c2ccccc12)NC(=O)[C@H](CCC(N)=O)NC(=O)[C@@H](Cc1ccccc1)NC(=O)CN1CCC(NC(=O)COCCOCCNC(=O)CCC(C(=O)O)N2CCN(CC(=O)O)CCN(CC(=O)O)CCN(CC(=O)O)CC2)CC1)C(C)C)C(N)=O (some centres unmarked) [[^177Lu]Lu-PKB2, metal not drawn] for me?
## Output 3.1

## Input Queued: CC(C)C[C@H](NC(=O)C[C@H](O)[C@H](CC(C)C)NC(=O)[C@H](Cc1c[nH]cn1)NC(=O)CN(C)C(=O)[C@@H](NC(=O)[C@H](C)NC(=O)[C@](C)(Cc1c[nH]c2ccccc12)NC(=O)[C@H](CCC(N)=O)NC(=O)[C@@H](Cc1ccccc1)NC(=O)CN1CCC(NC(=O)COCCOCCNC(=O)CN2CCN(CC(=O)O)CCN(CC(=O)O)CCN(CC(=O)O)CC2)CC1)C(C)C)C(N)=O [[^177Lu]Lu-PKB3, metal not drawn]
## Output 3.4
